Hello, the source for this data is PubChem BioAssay, in case you need it.

- protocol: small-molecule microarray binders of probe aWnt5a, primary screen, biochemical, biotinylated probe, 635/667 nm fluorescence (AID 1113);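 further: score merges 667 nm fluorescence intensity with signal-to-noise per printed feature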
- assay_setup: higher = more signal
just bin them by composite z-score: category 1 = under -0.1, category 2 = from -0.1 up to -0.03, category 3 = -0.03 and over

> print(dat)
                                   compound    category
1  COC(=O)CC=C[C@@H](C)[C@@H](C=NOC(C)CN1CCCc2nc(C)c(C)cc21)OC (stereo not given in full)  category 3
2  CCc1cc2c(nc1CC)CCN(CCC(C)=NO[C@H](C)c1cn([C@@H]3COC[C@H]3O)nn1)C2  category 2
3  CO[C@H]1COC(=O)[C@H](C)NC(=O)[C@@H](C)COC(=O)[C@H]2CCCN2C(=O)CC=C[C@H]1C  category 1
4  C[C@@H](ON=C1[C@H]2CCn3c(=O)n(-c4ccccc4)c(=O)n3[C@H]2[C@H](O)[C@@H]2O[C@H]12)c1cn([C@@H]2COC[C@H]2O)nn1  category 1
5  COC(=O)CC=C[C@@H](C)[C@@H](C=NOC[C@@H](O)[C@H]1O[C@@H]2OC(C)(C)O[C@@H]2[C@H]1O)NS(=O)(=O)c1ccc(C)cc1  category 2

Request: # classify by composite z-score band: CCC(=O)[C@@]1(O)C(=O)N2C(=C3C(=O)OCC[C@@H]31)N(Cc1ccccc1)C(C)=C(C(=O)OC)[C@H]2c1ccccc1
Result: category 3

Request: # classify by composite z-score band: CC(CCN1CCc2nc(-c3ccccc3)c(-c3ccccc3)cc2C1)=NOC[C@@H](O)COCc1ccco1
Result: category 2

Request: # classify by composite z-score band: O=c1n(-c2ccccc2)c(=O)n2n1CC[C@@H]1C(=NOCc3ccccc3)[C@H]3O[C@H]3[C@@H](O)[C@@H]12
Result: category 1

Request: # classify by composite z-score band: CCCNC(=O)OC[C@H]1O[C@H](CCON=C(C)CCN2CCCc3nc(C)c(C)cc32)C=C[C@@H]1Oc1ccc(OC)cc1
Result: category 1

Request: # classify by composite z-score band: CO[C@@H]1C=CCC(=O)N2CCC[C@H]2C(=O)OC[C@@H](C)C(=O)OC[C@H]1C
Result: category 2

Request: # classify by composite z-score band: COC(=O)[C@@H]1CC[C@H](C)[C@@H](c2ccc(C)cc2)N1C(=O)c1ccc(C=NOC[C@@H](C)[C@H](OCc2ccccc2)C(C)C)cc1
Result: category 3

----------
- test_system: Streptavidin (Streptomyces avidinii) (UniProt P22629)
- Sequence (P22629 whole entry, looked up): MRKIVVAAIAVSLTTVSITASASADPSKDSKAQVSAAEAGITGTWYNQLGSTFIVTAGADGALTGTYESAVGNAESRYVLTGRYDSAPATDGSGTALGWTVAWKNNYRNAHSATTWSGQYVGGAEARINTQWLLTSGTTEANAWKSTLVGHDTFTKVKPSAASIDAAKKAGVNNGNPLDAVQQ
- protocol: streptavidin binders on small-molecule microarray, primary screen, artefact control for SMM compound annotation, biophysical, 635/667 nm fluorescence (AID 1147);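 further: signal reflects streptavidin binding to arrayed compounds as a control protein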
- assay_setup: streptavidin binding, higher = more signal
Binary classification by composite z-score, with -0.08 as an inclusive lower bound for criterion met; all other cases are criterion not met.

Example entries and their recorded answers appear below.
molecule	category
CO[C@H]1COC(=O)CC=C[C@@H](C)[C@H](NS(=O)(=O)c2ccc(C)cc2)COC(=O)CCC[C@@H]1C	criterion met
CCCCC#C[C@@H]1C=C[C@H](OC(C)=O)[C@@H](COC(C)=O)O1	criterion met
CCOC(=O)[C@H](CC(C)C)NC(=O)CCC1CC(OC(=O)NCc2cccc3ccccc23)CC2(CCCC(COC(=O)NCCOC)O2)O1 (stereo not given in full)	criterion met
COc1cc(O)c(C(=O)C=Cc2ccc3c(c2)OCO3)c(OC)c1	criterion not met
CCOC(=O)[C@H](CC(C)C)NC(=O)CCC1CC(OC(=O)NCc2ccc3c(c2)OCO3)CC2(CCCC(COC(=O)NCC(c3ccccc3)c3ccccc3)O2)O1 (stereo not given in full)	criterion not met
CCN1C(=O)[C@H]2[C@H]3[C@H](O)[C@H](O)CC(=NO[C@@H](C)c4cn([C@H](CO)Cc5ccccc5)nn4)[C@@H]3CC[C@H]2C1=O	criterion not met
O=C(NN=C1C[C@@H](O)[C@@H](O)[C@@H]2[C@@H]3C(=O)N(C[C@@H]4CCCO4)C(=O)[C@@H]3CC[C@H]12)OCc1ccccc1	criterion met
C=Cc1ccc([C@H]2N[C@H](C(=O)O)CC[C@@H]2C)cc1	criterion not met
CO[C@H]1COC(=O)CCC[C@@H](C)[C@H](OC)COC(=O)[C@@H]2CCCN2C(=O)CC=C[C@@H]1C	criterion not met
CC(C)=CCCC(C)=CCON=C1C[C@@H](O)[C@@H](O)[C@@H]2[C@@H]3C(=O)N(c4cccc(Oc5ccccc5)c4)C(=O)[C@@H]3CC[C@@H]12	criterion met

Request: Hello, I need to know if COC(=O)C1=C(C)N(Cc2ccccc2)[C@]23O[C@](C(=O)OC)(C(=O)N2[C@@H]1c1ccccc1)C(C(=O)OC)=C3C(=O)OC has measured composite z-score not below -0.08. Thanks!
Result: criterion met

Request: Hello, I need to know if C#CCCCON=C1C[C@@H](O)[C@@H](O)[C@@H]2[C@@H]3C(=O)N(c4ccc(F)cc4F)C(=O)[C@@H]3CC[C@H]12 has measured composite z-score not below -0.08. Thanks!
Result: criterion not met

Request: Hello, I need to know if C#CCCCON=C1C[C@@H](O)[C@@H](O)[C@@H]2[C@@H]3C(=O)N(c4cccc(Oc5ccccc5)c4)C(=O)[C@@H]3CC[C@H]12 has measured composite z-score not below -0.08. Thanks!
Result: criterion not met

Request: Hello, I need to know if CCOC(=O)C1=NO[C@@]2(C=C(Br)C3(OCCCO3)[C@H]3O[C@H]32)C1 has measured composite z-score not below -0.08. Thanks!
Result: criterion met

----------
- protocol: small-molecule binders of probe aLefty1, primary screen, biochemical, small-molecule microarray, 635/667 nm fluorescence (AID 1153);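 further: score merges spot fluorescence with signal-to-noise ratio from the scanned slide images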
- assay_setup: higher = more signal
Quick reference: composite z-score of the listed items.
# answer = number (no unit)

Examples with answers:
compound	metric_name	observed
C=CC[C@@H]1C=C[C@H](ON=C(C)CCC(=O)OC[C@H]2O[C@H](c3ccccc3)C=C[C@@H]2Oc2ccc(OC)cc2)[C@@H](CO)O1	composite z-score	-0.291
CCOC(=O)[C@H](Cc1ccccc1)NC(=O)CCC1CC(OC(=O)NCCc2ccc(F)cc2)CC2(CCCC(COC(=O)NCCOC)O2)O1 (some centres not stated)	composite z-score	-0.0468
COC(=O)[C@H]1O[C@@H](c2c(OC)c(OC)c(C)c(OC)c2OC)[C@H](C)[C@@H](O)[C@H]1C	composite z-score	-0.0505

Next compound, please.
Request: Give me measured composite z-score, please, for this compound: COC(=O)CC=C[C@@H](C)[C@@H](C=NO[C@@H](C)c1cn([C@H](CO)Cc2ccccc2)nn1)OC
Result: -0.275

----------
- protocol: small-molecule binders of probe aInhba, primary screen, biochemical, small-molecule microarray, 635/667 nm fluorescence (AID 1148);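 further: score merges 667nm spot fluorescence with signal-to-noise for antibody binding to printed compounds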
- assay_setup: higher = more signal
Quick reference: composite z-score of the listed items.
# answer = number (no unit)

Examples with answers:
> print(dat)
                            chemical.smiles  observed
1  CCOC(=O)NN=C1C[C@@H](O)[C@@H](O)[C@@H]2[C@@H]3C(=O)N(C(C)(C)C)C(=O)[C@@H]3CC[C@H]12    0.0427
2  CO[C@H]1COC(=O)[C@@H](Cc2ccccc2)NC(=O)[C@@H](C)COC(=O)CCC[C@@H]1C    -0.285
3  CC(C)=CCCC(C)=CCON=C1C[C@@H](O)[C@@H](O)[C@@H]2[C@@H]3C(=O)N(c4ccc(F)cc4F)C(=O)[C@@H]3CC[C@H]12   -0.0178

Next molecule, please.
Request: Give me measured composite z-score, please, for this molecule: COC(=O)[C@H]1[C@@H](O)[C@@]2(O)c3ccccc3O[C@@]2(c2ccccc2)[C@@H]1c1ccccc1
Result: -0.0361

----------
- protocol: fission yeast growth modulation, primary screen, strain 972, OD600, 24 h, no modulator (AID 1090);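 further: basal condition with compound alone and no growth modifier present; test concentration not given here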
- assay_setup: S. pombe 972 growth, higher = more signal, called active from +8 up or from −8 down
Quick reference: z-score of the listed items.
# answer = number (no unit)

Request: Give me measured z-score, please, for this compound: CCOC(=O)[C@H](Cc1ccccc1)NC(=O)OC1CC(CCC2CC(CC)=NO2)OC2(CCCC(COC(=O)NCCC(C)C)O2)C1 (some centres undefined)
Result: 0.595

Request: Give me measured z-score, please, for this compound: CO[C@H]1COC(=O)[C@@H](C)COC(=O)[C@H](COCc2ccccc2)NC(=O)CC=C[C@H]1C
Result: -0.704

Request: Give me measured z-score, please, for this compound: O=C1C[C@@H](O)[C@@H](O)[C@@H]2[C@@H]3C(=O)N(Cc4ccc5c(c4)OCO5)C(=O)[C@@H]3CC[C@H]12
Result: -0.587

Request: Give me measured z-score, please, for this compound: C[C@@H](c1ccccc1)N1C(=O)[C@H]2[C@H]3[C@H](O)[C@H](O)CC(=O)[C@H]3CC[C@H]2C1=O
Result: -0.197
